biological target: Mcl-1 protein (Homo sapiens, UniProt Q07820); test: Inhibition of Mcl-1 by the fluorescence polarisation technique (Method 1 or Method 2); format: binding; conditions: fluorescence polarisation, Fluorescein labelled ligand; Method 1 (not underlined) or Method 2 (underlined); read-out: IC50 (μM) Mcl-1 FP
Sequence (Q07820 whole entry): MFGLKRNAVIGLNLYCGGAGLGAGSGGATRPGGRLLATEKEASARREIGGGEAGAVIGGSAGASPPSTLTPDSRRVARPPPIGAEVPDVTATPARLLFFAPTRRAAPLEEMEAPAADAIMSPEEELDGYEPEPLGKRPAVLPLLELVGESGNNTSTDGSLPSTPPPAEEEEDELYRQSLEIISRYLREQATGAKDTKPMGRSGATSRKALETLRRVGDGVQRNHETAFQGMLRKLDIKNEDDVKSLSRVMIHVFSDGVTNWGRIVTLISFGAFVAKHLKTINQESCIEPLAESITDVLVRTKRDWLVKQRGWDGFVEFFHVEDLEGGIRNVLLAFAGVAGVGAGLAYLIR
propertyMeasured: IC50 (µM)

Solved cases below.
CCc1sc2ncnc(N[C@@H](C(=O)O)c3ccccc3)c2c1-c1cccc2ccccc12 (single isomer, unassigned) [Example 161]    12.6
COc1ccccc1-c1nccc(COc2ccccc2CC(Nc2ncnc3sc(-c4ccc(F)cc4)c(-c4ccc(OCCN5CCN(C)CC5)c(Cl)c4C)c23)C(=O)O)n1 (stereo not shown) [Example 7]    0.008

(A) CCc1sc2ncnc(NC(Cc3ccc(O)cc3)C(=O)O)c2c1-c1cccc2ccccc12 (stereo not shown) [Example 173]
(B) Cc1c(-c2c(-c3ccsc3)sc3ncnc(NC(CC4CCCCC4)C(=O)O)c23)ccc(OCCN2CCN(C)CC2)c1Cl (stereo not shown) [Example 32]
(C) CCc1sc2ncnc(NC(Cc3ccccc3)C(=O)O)c2c1-c1cccc2c1c(Cl)cn2CCCN1CCN(C)CC1 (stereo not shown) [Example 240]
(D) CCc1sc2ncnc(NC(Cc3ccccc3)C(=O)O)c2c1-c1cccc2ccccc12 (stereo not shown) [Example 100]
(E) CCc1sc2ncnc(NC(Cc3ccccc3)C(=O)O)c2c1-c1ccnc(Cl)c1C (stereo not shown) [Example 78]
Highest IC50 first, then in falling order down to the smallest. Write out the labels following the order that was asked for.
A, D, C, E, B
(A: 6.79 µM, D: 4.75 µM, C: 0.958 µM, E: 0.135 µM, B: 0.007 µM)

* * *

biological target: Mcl-1 protein (Homo sapiens, UniProt Q07820); assay: Inhibition of Mcl-1 by the fluorescence polarisation technique (Method 1 or Method 2); format: binding; conditions: partial inhibitors; @ 10 μM test compound
propertyMeasured: percentage fluorescence polarisation inhibition, Mcl-1 FP (% @ 10 μM)

CCc1sc2ncnc(N[C@@H](Cc3ccccc3)C(=O)O)c2c1-c1ccc(OCCN(C)C)c(Cl)c1C    52.8
COC(=O)c1oc(-c2sc3ncnc(NC(Cc4ccccc4OC)C(=O)O)c3c2-c2ccc(OCCN3CCN(C)CC3)c(Cl)c2C)cc1C (stereo not shown)    36.9
CCc1sc2ncnc(NC(Cc3ccccc3OCC(=O)N(C)C)C(=O)O)c2c1-c1cccc(Cl)c1C (stereo not shown)    26.78
Cc1c(-c2c(-c3ccsc3)sc3ncnc(NC(Cc4ccccc4F)C(=O)O)c23)ccc(OCCN2CCN(C)CC2)c1Cl (stereo not shown)    54.9
Cc1c(Cl)cccc1-c1c(C2CC2)sc2ncnc(NC(Cc3ccccc3)C(=O)O)c12 (stereo not shown)    58.95

(a) COc1ccccc1C[C@@H](Nc1ncnc2sc(-c3ccc(F)cc3)c(-c3ccc(OCCN4CCN(C)CC4)c(Cl)c3C)c12)C(=O)O
(b) CCc1sc2ncnc(N[C@H](Cc3ccccc3Br)C(=O)O)c2c1-c1cccc(Cl)c1C
Hi there, can you help? I need to know whether a or b has lower measured percentage fluorescence polarisation inhibition, Mcl-1 FP. I would appreciate it if you answered with the label of your choice.
b
(b: 32.75 % @ 10 μM, a: 56.9 % @ 10 μM)

* * *

biological target: Mcl-1 protein (Homo sapiens); experiment: Inhibition of Mcl-1 by the fluorescence polarisation technique (Method 1 or Method 2); type: binding; details: fluorescence polarisation, Fluorescein labelled ligand; Method 1 (not underlined) or Method 2 (underlined); read-out: IC50 (μM) Mcl-1 FP
propertyMeasured: IC50 (µM)

(P) CCc1sc2ncnc(NC(Cc3ccc(F)cc3)C(=O)O)c2c1-c1cccc2ccccc12 (centres unmarked) [Example 177]
(Q) CCc1sc2ncnc(N[C@H](Cc3ccccc3)C(=O)O)c2c1-c1cccc2[nH]ncc12 [Example 98]
Just tell me: smaller IC50 value, P or Q ? Indicate which entry you chose by stating its label.
P
(P: 0.957 µM, Q: 2.87 µM)

(1) CCc1sc2ncnc(N[C@H](Cc3ccccc3C)C(=O)O)c2c1-c1cccc2ccccc12 (single isomer, unassigned) [Example 167]
(2) Cc1c(-c2c(-c3ccc(F)o3)sc3ncnc(NC(Cc4ccccc4OCc4ccnn4C)C(=O)O)c23)ccc(OCCN2CCN(C)CC2)c1Cl (centres unmarked) [Example 20]
Sorting by IC50 in descending order, would 1 or 2 appear first? Let me know the label of the one you choose.
1

(1) CC#Cc1sc2ncnc(NC(Cc3ccccc3OCc3ccnn3CC(F)(F)F)C(=O)O)c2c1-c1ccc(OCCN2CCN(C)CC2)c(Cl)c1C (centres unmarked) [Example 42]
(2) CCc1sc2ncnc(NC(Cc3ccccc3C(N)=O)C(=O)O)c2c1-c1cccc(Cl)c1C (centres unmarked) [Example 134]
(3) CCc1sc2ncnc(NC(Cc3ccccc3)C(=O)O)c2c1-c1cccc(Br)c1C (centres unmarked) [Example 97]
(4) CCc1sc2ncnc(NC(Cc3ccccc3C(F)(F)F)C(=O)O)c2c1-c1cccc(Cl)c1C (centres unmarked) [Example 138]
Ordering: ascending IC50. Please list the labels according to the requested order.
1, 3, 2, 4

(a) CC#Cc1sc2ncnc(NC(Cc3ccccc3OCc3ccnc(N4CCOCC4)n3)C(=O)O)c2c1-c1ccc(OCCN(C)C)c(Cl)c1C (centres unmarked) [Example 47]
(b) CCc1sc2ncnc(NC(Cc3ccccc3OCCC3CCCC3)C(=O)O)c2c1-c1cccc(Cl)c1C (centres unmarked) [Example 144]
(c) CCc1sc2ncnc(NC(Cc3ccccn3)C(=O)O)c2c1-c1cccc2c1c(Cl)cn2CCN1CCN(C)CC1 (centres unmarked) [Example 249]
(d) CCc1sc2ncnc(N[C@H](Cc3ccccc3C)C(=O)O)c2c1-c1cccc2ccccc12 (single isomer, unassigned) [Example 168]
Give the ascending ranking of the items by reported IC50. # format: label list in the order the request specifies
a, b, d, c
(a: 0.008 µM, b: 0.154 µM, d: 4.78 µM, c: 36.8 µM)
